Data provenance is patent US20250082624A1.

- method-notes: Phase 1b MAD plasma pharmacokinetics, non-compartmental analysis
- Type: in vivo, human
- condition-summary: human, plasma, po, 120 mg, Table 24 (interim): Cohort B, 120 mg SDD (30 mg NTRX-07) QD oral, Day 1; mean ± S.D.; read-out: Cmax

[
  {
    "compound": "CC1(Cc2ccccc2)COc2cc(C(=O)N3CCCCC3)ccc21 (stereo not shown) [NTRX-07]",
    "Cmax (ng/mL)": 109
  }
]

====

- method-notes: Phase 1b MAD plasma pharmacokinetics, non-compartmental analysis
- Format: in vivo, human
- condition-summary: human, plasma, po, 90 mg, Table 16: Cohort D (AD), 90 mg QD oral, Day 1; mean ± S.D.; read-out: Vd/F

[
  {
    "compound": "CC1(Cc2ccccc2)COc2cc(C(=O)N3CCCCC3)ccc21 (stereo not shown)",
    "Vd/F, L": 211
  }
]
